pIC50: −log10 of the molar value.
Dear all, I have gathered published pIC50 values for Coagulation factor XI (Homo sapiens, UniProt P03951); the list follows.
PROPERTY LABEL: pIC50

The cases that follow already have their pIC50 on record.
{"COMPOUND": "CNC(=O)c1ccc(NC(=O)C(C[C@@H]2CCCCO2)n2cc(Cl)c(-c3cc(Cl)ccc3C#N)cc2=O)cn1 (stereo partly shown)", "DATA VALUE": 7.92}
{"COMPOUND": "O=C(O)c1ccc(NC(=O)C(O)c2ccc(-c3cc(Cl)ccc3C3CC3)c[n+]2[O-])cc1 (racemic)", "DATA VALUE": 5.60}
{"COMPOUND": "CC1(n2ncc(C(=O)N3CCC[C@@]4(C3)OC(=O)Nc3ccc(Cl)c(F)c34)c2N)CCS(=O)(=O)C1 (single isomer, unassigned)", "DATA VALUE": 5.84}
{"COMPOUND": "Cc1nc(N2CCC2)cnc1C(C)n1cc(NC(=O)c2cncc(-c3c(C(F)F)ccc(Cl)c3F)n2)cn1 (single isomer, unassigned)", "DATA VALUE": 5.38}

1. COc1nn([C@@H](Cc2ccccc2)C(=O)Nc2ccc(C(=O)O)c(F)c2)c(=O)cc1-c1cc(Cl)ccc1C(C)=O
2. COc1cn(C(Cc2ccncc2)C(=O)Nc2cc(F)c(C(N)=O)s2)c(=O)cc1-c1cc(Cl)ccc1C#N (racemic)
3. COC(=O)Nc1ccc2c(c1)NC(=O)C(C)(C)CCC[C@H](c1ccc(-c3cc(F)ccc3OC(F)F)c[n+]1[O-])c1nc-2c(C(=O)O)[nH]1.N (single isomer, unassigned)
Put the items in sequence by pIC50, from largest down. List labels; respect the requested ordering.
3, 2, 1

1. COc1nn(C(Cc2ccc(Br)cc2)C(=O)Nc2ccc(C(=O)O)cc2)c(=O)cc1-c1cc(Cl)ccc1C(C)=O (stereo not shown)
2. O=C(Nc1ccc(-c2nnn[nH]2)cc1)[C@@H]1CC[C@H]2CC(c3c(-n4cnnn4)ccc(Cl)c3F)=CC(=O)N21 (single isomer, unassigned)
Kindly compare 1 with 2 and tell me which has the lower pIC50 figure. Give the label under which the chosen entry appears.
1
(1: 7.29, 2: 8.72)
